- Species on record: Mus musculus
- methodDescription: Activity at CD1d in C57BL/6 mouse splenocytes assessed as production of IFN-gamma at 10 to 1000 nM after 48 hrs by ELISA
- Type: cell-based
Activity calls are given as the source filed them. No cut-off for these calls is given here.
measuredProperty: Activity

[
  {
    "cpdSmiles": "CCCCCCCCCCCCCC[C@@H](O)[C@@H](O)[C@H](CO[C@H]1O[C@H](CO)[C@H](O)[C@H](O)[C@H]1O)NC(=O)CCCCCCCCCCCCCCCC[Se]CCCCCCCC",
    "readoutValue": "Active"
  },
  {
    "cpdSmiles": "CCCCCCCCCCCCCC[C@@H](O)[C@@H](O)[C@H](CO[C@H]1O[C@H](CO)[C@H](O)[C@H](O)[C@H]1O)NC(=O)CCCCCCCCCCCCCCCCCCCCCCCCCl",
    "readoutValue": "Active"
  },
  {
    "cpdSmiles": "CCCCCCCCCCCCCC[C@@H](O)[C@@H](O)[C@H](CO[C@H]1O[C@H](CO)[C@H](O)[C@H](O)[C@H]1O)NC(=O)CCCCCCCCCCCCCCCCCCCCCCCCF",
    "readoutValue": "Active"
  },
  {
    "cpdSmiles": "CCCCCCCCCCCCCC[Se]CCCCCCCCCCC(=O)N[C@@H](CO[C@H]1O[C@H](CO)[C@H](O)[C@H](O)[C@H]1O)[C@H](O)[C@H](O)CCCCCCCCCCCCCC",
    "readoutValue": "Active"
  },
  {
    "cpdSmiles": "CCCCCCCCCCCCCC[C@@H](O)[C@@H](O)[C@H](CO[C@H]1O[C@H](CO)[C@H](O)[C@H](O)[C@H]1O)NC(=O)CCCCCCCCCCCCCCCCCCCCCCCCBr",
    "readoutValue": "Active"
  }
]

The measured values listed here are drawn from ChEMBL document CHEMBL3813690.
